target entity: Urokinase-type plasminogen activator (Homo sapiens)
experiment summary: Inhibition of Human kidney cell urokinase
Type: cell-based
measured endpoint: Ki

molecule: COc1sc(C(=N)N)cc1-c1nc(-c2ccccc2)cs1
measured endpoint: Ki
readout value: 0.531 µM

molecule: COc1ccc(-c2csc(-c3cc(C(=N)N)sc3SC)n2)cc1OC
measured endpoint: Ki
readout value: 0.058 µM

molecule: CSc1sc(C(=N)N)cc1-c1nc(-c2ccc(Cl)cc2)cs1
measured endpoint: Ki
readout value: 0.102 µM

###

experiment summary: Compound was evaluated for its solubility in water
Type: ADME
solubility values by entry

molecule: CSc1sc(C(=N)N)cc1-c1nc(-c2ccccc2)cs1
units text: µM
solubility: 300
//
molecule: Cc1sc(C(=N)N)cc1-c1nc(-c2ccccc2)cs1
units text: µM
solubility: 9000
//
molecule: CCc1sc(C(=N)N)cc1-c1nc(-c2ccccc2)cs1
units text: µM
solubility: 2700
